target: T1, PCSK9 (UniProt Q8NBP7 31-692, limits assumed); experiment: SPR BIAcore X100, antibody captured by goat anti-human IgG on CM5, PCSK9 as analyte
T1 construct: Printed only as 'PCSK9' in Embodiments 5.4 and 6; also called Proprotein Convertase Subtilisin/Kexin Type 9; PCSK9 solution
T1 sequence (Q8NBP7 31-692 limits assumed): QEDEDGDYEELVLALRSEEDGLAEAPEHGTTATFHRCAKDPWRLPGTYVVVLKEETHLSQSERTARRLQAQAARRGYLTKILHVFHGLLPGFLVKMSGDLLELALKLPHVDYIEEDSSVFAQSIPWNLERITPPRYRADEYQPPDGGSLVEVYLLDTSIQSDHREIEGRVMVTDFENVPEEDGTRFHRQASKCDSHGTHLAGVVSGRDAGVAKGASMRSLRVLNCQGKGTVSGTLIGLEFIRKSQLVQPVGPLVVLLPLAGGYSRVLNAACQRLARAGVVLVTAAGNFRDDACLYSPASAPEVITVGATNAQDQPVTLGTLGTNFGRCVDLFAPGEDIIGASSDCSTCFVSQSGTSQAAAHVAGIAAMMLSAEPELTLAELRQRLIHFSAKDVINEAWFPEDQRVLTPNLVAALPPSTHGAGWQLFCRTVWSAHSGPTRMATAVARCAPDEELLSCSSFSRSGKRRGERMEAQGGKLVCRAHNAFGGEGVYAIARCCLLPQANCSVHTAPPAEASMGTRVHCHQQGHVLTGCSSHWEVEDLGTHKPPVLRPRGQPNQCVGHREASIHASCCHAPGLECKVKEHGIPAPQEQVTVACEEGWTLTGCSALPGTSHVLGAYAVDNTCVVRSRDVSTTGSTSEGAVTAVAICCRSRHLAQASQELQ
property_label: kon (M⁻¹ s⁻¹)
Give bare numbers, in M⁻¹ s⁻¹.

- binder: "DFSK9-21 complete antibody (antibody, V domains shown, also called DF5K9-21) VH: QVQLVQSGAEVKKPGASVKVSCKASGYSLTSYGISWVRQAPGQGLEWMGWVSFYNGQTNYAQKLQGRGTMTTDPSTSTAYMELRSLRSDDTAVYYCARGFGMDRWGQGTTVTVSS VL: DIQMTQSPSSLSASVGDRVTITCRASQNINNWLNWYQQKPGKAPKLLIYGASTRPTGVPSRFSGSGSGTDFTLTISSLQPEDFATYYCQQWDDTPNTFGQGTKVEIK"
  kon / M⁻¹ s⁻¹: 592000

Alright, here's another binder for you.
Query string: # get_value(readout='kon', item= DFSK9-14 complete antibody (antibody, V domains shown) VH: QVQLVQSGAEVKKPGASVKVSCKASGYSLTSYGISWVRQAPGQGLEWMGWVSFYNGQTNYAQKLQGRGTMTTDPSTSTAYMELRSLRSDDTAVYYCARGYGMSIWGQGTTVTVSS VL: DIQMTQSPSSLSASVGDRVTITCRASQNINSWLNWYQQKPGKAPKLLIYGASSRQSGVPSRFSGSGSGTDFTLTISSLQPEDFATYYCQQWFDVPTTFGQGTKVEIK )
Result string: 2.7e+06
